Taken from ChEMBL document CHEMBL1144969.

Starred links: 1 amine or outer side, 2 acyl side, 3 side chain; linkers in the order of their positions; H or OH if unused. Positions of bridges follow the written chain, without caps; N, C: chain ends. Non-standard residues stand in square brackets, D forms with d. Residues, ends and D or L forms follow the SMILES beside them. pY = N[C@@H](Cc1ccc(OP(=O)(O)O)cc1)C(=O)O; X1 = O=C(C[*:2])NCCC(=O)[*:1]; hCys = N[C@@H](CCS)C(=O)O; Ac6c = NC1(C(=O)O)CCCCC1
IC50 values recorded for Growth factor receptor-bound protein 2 (Homo sapiens)
Answers are plain numbers, in nM.

For every item below, please supply its IC50.
1. CSCC[C@@H]1NC(=O)CNC(=O)[C@H](C(C)C)NC(=O)[C@H](CC(N)=O)NC(=O)[C@H](CCC(=O)O)NC(=O)[C@H](Cc2ccc(OP(=O)(O)O)cc2)NC(=O)[C@H](CC(C)C)NC(=O)[C@H](C)NC(=O)CSCC[C@@H](C(N)=O)NC(=O)[C@H](Cc2ccc(O)cc2)NC1=O ({CH2CO}-AL[pY]ENVGMY[hCys]-NH2; thioether N-10)
2. CSCC[C@@H]1NC(=O)CNC(=O)[C@H](C(C)C)NC(=O)[C@H](CC(N)=O)NC(=O)[C@H](CCC(=O)O)NC(=O)[C@H](Cc2ccc(OP(=O)(O)O)cc2)NC(=O)[C@H](CC(C)C)NC(=O)CCNC(=O)CSC[C@@H](C(N)=O)NC(=O)[C@H](Cc2ccc(O)cc2)NC1=O (L[pY]ENVGMYC-NH2; linker N-9 via X1)
3. CSCC[C@@H]1NC(=O)CNC(=O)[C@H](C(C)C)NC(=O)[C@H](CC(N)=O)NC(=O)C2(CCCCC2)NC(=O)[C@H](Cc2ccc(OP(=O)(O)O)cc2)NC(=O)[C@H](CC(C)C)NC(=O)CCNC(=O)CSC[C@@H](C(N)=O)NC(=O)[C@H](Cc2ccc(O)cc2)NC1=O (L[pY][Ac6c]NVGMYC-NH2; linker N-9 via X1)
4. CC(C)C[C@@H]1NC(=O)[C@H](C)NC(=O)CSC[C@@H](C(N)=O)NC(=O)[C@H](Cc2ccc(O)cc2)NC(=O)[C@H](C)NC(=O)CNC(=O)[C@H](C(C)C)NC(=O)[C@H](CC(N)=O)NC(=O)C2(CCCCC2)NC(=O)[C@H](Cc2ccc(OP(=O)(O)O)cc2)NC1=O ({CH2CO}-AL[pY][Ac6c]NVGAYC-NH2; thioether N-10)

**Result**
1. 54.7
2. 8.26
3. 21
4. 13.3
